Reported GI50 values for a set of compounds
System: LOX IMVI
Assay: NCI tumour cell line growth inhibition, 48 h
Activity calls are given as the source filed them. Cut-off read from the data, not from the text of the source: active = GI50 up to about 1.1 µM and inactive = higher.

A selection of reference data follows.
| compound | reported_endpoint | experimental_value |
| --- | --- | --- |
| O=c1[nH]c2ccc(C(F)(F)F)cc2nc1Cc1ccccc1 | GI50 | 40 µM (inactive) |
| CCOC(=O)N1C=NC23C(c4ccccc4)C(c4ccccc4)C12C(=O)N(C)C(=O)N3C (stereo not given) | GI50 | > 100 µM (inactive) |
| COc1ccc(CCN2COc3ccc4ccc(=O)oc4c3C2)cc1OC | GI50 | 20.9 µM (inactive) |
| Cc1nc(-c2cc3c(ccc4ccccc43)oc2=O)cs1 | GI50 | > 100 µM (inactive) |

Proceed to the following item.
### Prompt # get_value(readout='GI50', item= COc1cc(=O)oc(/C=C/C=C/C=C/C(C)=C\C2(C)OC(C)C(C)(O)C2O)c1C (stereo not given) )
### Response > 100 µM (inactive)
